test: Pharmacokinetics of MT, 6-HMT and CBD in SD rats (i.v. and oral); details: male, Sprague-Dawley, rat, plasma, po, 20 mg/kg, Cmax, rats, p.o., MT + CBD (5 + 20) mg/kg
metric.name: Cmax

Task: What value of Cmax has been recorded for this entry: `C=C(C)[C@@H]1CCC(C)=C[C@H]1c1c(O)cc(CCCCC)cc1O`
Result: 510 ng/mL

###

experiment: Pharmacokinetics of MT, 6-HMT and CBD in beagles after oral administration; settings: male, beagle, dog, in vivo, po, 3 mg/kg, Tmax, beagles, p.o., MT + CBD (3 + 3) mg/kg
metric.name: Tmax
Phrase the answer as number then unit, nothing more needed.

Task: What value of Tmax has been recorded for this entry: `COc1ccc2[nH]cc(CCNC(C)=O)c2c1`
Result: 42.6 min
